tested on: Sarcoma 180; assay: Antitumor testing against Sarcoma 180 (oral, s.c. implanted); format: in vivo, mice; settings: Mus musculus, 336 h, 0.8 mmole/kg/day × 7, p.o., day 14, read-out: Inhibition of tumor growth
Each entry below carries its reported inhibition in vivo at 800 µmol/kg.
Please give a number only; it is taken to be in %.

Before answering, review these 3 worked examples.
Compound smiles	Attribute measured	Unit of measurement	Observed
C[C@H]1O[C@@H](n2cc(F)c(NC(=O)C3CCCCC3)nc2=O)[C@H](O)[C@@H]1O	inhibition in vivo at 800 µmol/kg	%	40
C[C@H]1O[C@@H](n2cc(F)c(NC(=O)/C=C/c3ccccc3)nc2=O)[C@H](O)[C@@H]1O	inhibition in vivo at 800 µmol/kg	%	47
C[C@H]1O[C@@H](n2cc(F)c(NC(=O)C3CC3)nc2=O)[C@H](O)[C@@H]1O	inhibition in vivo at 800 µmol/kg	%	69

Query block: Query for Sarcoma 180: what inhibition in vivo at 800 µmol/kg does the record show for `C[C@H]1O[C@@H](n2cc(F)c(NC(=O)C34CC5CC(CC(C5)C3)C4)nc2=O)[C@H](O)[C@@H]1O` ?
Result block: 28
